src = patent US11148998B2

# Test system: serum pro-inflammatory cytokines
# run parameters: mouse, in vivo
# Description: Each of the 4 experimental retinoids was made up in DMSO as 0.1% and 0.3% solutions. The material was applied to the treatment area (2 cm^2 area) on a dot marked area on the inter-scapular back) once daily for 7 consecutive days or for 21 consecutive days. The test agent was gently rubbed into the test site after application. As a control, Tretinoin-0.1% was used. […] Serum was obtained from all mice at the end of the study and evaluated for levels of pro-inflammatory cytokines. […]
endpoint name: IL-1β serum level

{"compound": "CC1=C(/C=C/C(C)=C\\C=C\\C(C)=C\\C(=O)N(C)CC(=O)C(C)(C)C)C(C)(C)CCC1", "obs value": "low"}
{"compound": "CC1=C(/C=C/C(C)=C\\C=C\\C(C)=C\\C(=O)N(C)CC(=O)c2ccccc2)C(C)(C)CCC1", "obs value": "low"}
{"compound": "CC1=C(/C=C/C(C)=C\\C=C\\C(C)=C\\C(=O)N(C)CC(=O)C2(C)CC2)C(C)(C)CCC1", "obs value": "low"}
{"compound": "CC1=C(/C=C/C(C)=C/C=C/C(C)=C/C(=O)O)C(C)(C)CCC1 [ATRA, all-trans retinoic acid, reference compound]", "obs value": "low"}

What value of IL-1β serum level has been recorded for this entry: "CC1=C(/C=C/C(C)=C\C=C\C(C)=C\C(=O)N2CCCC(=O)C2)C(C)(C)CCC1" low
